Listed next: entries and their corresponding pKi.
Target: GABA-A receptor; alpha-1/beta-3/gamma-2 (Homo sapiens, UniProt P14867+P18507+P28472)
Sequence (P14867 whole entry): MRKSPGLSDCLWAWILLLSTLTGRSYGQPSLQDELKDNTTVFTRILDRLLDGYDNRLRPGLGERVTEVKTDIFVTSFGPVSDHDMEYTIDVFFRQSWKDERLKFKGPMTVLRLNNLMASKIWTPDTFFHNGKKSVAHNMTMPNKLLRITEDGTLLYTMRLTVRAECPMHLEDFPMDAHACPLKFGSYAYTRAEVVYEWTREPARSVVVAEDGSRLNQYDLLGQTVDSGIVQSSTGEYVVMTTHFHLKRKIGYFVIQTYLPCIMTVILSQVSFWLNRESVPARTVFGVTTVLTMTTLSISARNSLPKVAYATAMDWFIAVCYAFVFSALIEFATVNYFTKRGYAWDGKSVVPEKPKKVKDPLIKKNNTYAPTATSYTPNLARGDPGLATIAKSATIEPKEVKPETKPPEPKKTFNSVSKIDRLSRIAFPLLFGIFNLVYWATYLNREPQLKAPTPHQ
Sequence (P18507 whole entry): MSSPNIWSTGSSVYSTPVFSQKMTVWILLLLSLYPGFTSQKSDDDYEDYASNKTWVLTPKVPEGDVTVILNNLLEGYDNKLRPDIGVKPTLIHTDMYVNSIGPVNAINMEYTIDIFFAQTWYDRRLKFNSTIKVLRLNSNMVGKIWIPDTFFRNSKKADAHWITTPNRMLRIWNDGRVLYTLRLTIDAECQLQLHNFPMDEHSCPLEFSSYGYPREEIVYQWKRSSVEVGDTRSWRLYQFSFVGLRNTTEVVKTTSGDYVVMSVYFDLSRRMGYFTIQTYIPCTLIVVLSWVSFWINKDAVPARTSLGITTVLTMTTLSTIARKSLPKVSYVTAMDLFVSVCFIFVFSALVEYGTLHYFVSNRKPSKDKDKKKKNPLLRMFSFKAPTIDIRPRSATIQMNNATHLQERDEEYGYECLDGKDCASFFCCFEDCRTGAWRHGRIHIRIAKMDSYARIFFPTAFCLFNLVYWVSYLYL
Sequence (P28472 whole entry): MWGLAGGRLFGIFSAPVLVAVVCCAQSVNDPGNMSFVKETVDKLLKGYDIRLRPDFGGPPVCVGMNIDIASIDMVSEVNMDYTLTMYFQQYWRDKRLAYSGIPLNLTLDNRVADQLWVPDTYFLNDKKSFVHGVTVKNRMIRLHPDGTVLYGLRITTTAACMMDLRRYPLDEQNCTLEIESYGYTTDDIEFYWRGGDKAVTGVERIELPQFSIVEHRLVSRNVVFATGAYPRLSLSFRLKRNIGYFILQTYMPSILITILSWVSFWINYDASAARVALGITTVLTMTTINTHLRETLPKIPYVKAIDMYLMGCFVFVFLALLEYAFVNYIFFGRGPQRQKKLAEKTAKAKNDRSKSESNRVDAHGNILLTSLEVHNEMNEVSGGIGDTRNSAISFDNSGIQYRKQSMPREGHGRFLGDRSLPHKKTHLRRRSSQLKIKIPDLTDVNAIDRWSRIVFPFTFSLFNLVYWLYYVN
Experiment: Displacement of [3H]flumazenil human recombinant alpha1beta3gamma2 GABA(A) receptor expressed in HEK293 cells after 30 mins by glass fiber filtration assay
Conditions: in the assay text read “after 40 mins” for “after 30 mins”
pKi: −log10 of the molar value.
readout: pKi

> print(dat)
                  compound.structure.string  readout  measured.number
1  Cc1ccc2[nH]c(=O)n3c(=O)n(-c4ccccc4)nc3c2c1      pKi             9.37
2  Cc1ccc(-n2nc3c4cc(CCc5ccccc5)ccc4[nH]c(=O)n3c2=O)cc1      pKi             8.44
3  Cc1ccc(-n2nc3c4cc(CCc5ccsc5)ccc4[nH]c(=O)n3c2=O)cc1      pKi             9.85
4  Cc1ccc(-n2nc3c4cc(CCc5cccnc5)ccc4[nH]c(=O)n3c2=O)cc1      pKi             9.17
